Molecular target: T1, human TIGIT on Jurkat cells (TIGIT/NFAT reporter Jurkat cells, BPS Bioscience #60538); Promega TIGIT Effector … (human, UniProt Q495A1 22-244)
T1 sequence (looked up): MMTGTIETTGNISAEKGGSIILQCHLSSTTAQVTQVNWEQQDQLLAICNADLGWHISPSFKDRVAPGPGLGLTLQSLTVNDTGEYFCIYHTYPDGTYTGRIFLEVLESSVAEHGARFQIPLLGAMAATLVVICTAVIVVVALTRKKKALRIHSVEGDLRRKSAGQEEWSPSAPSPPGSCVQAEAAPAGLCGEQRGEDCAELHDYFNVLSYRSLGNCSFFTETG
Experiment: cell-based or functional assay
MEASURED QUANTITY: max. signal (% of 22G2)

Entry 43586p2.H02 (scFv, V domains shown) VH: EVQLLESGGGLVQPGGSLRLSCATSGFTVSDHYVSWVRQAPGKGLEWVSTSSSTNWNDGRTYYADSVKGRFTISRDNSENTLYLQMNSLRAEDTAVYYCAKGSYGMDVWGQGTTVTVSS VL: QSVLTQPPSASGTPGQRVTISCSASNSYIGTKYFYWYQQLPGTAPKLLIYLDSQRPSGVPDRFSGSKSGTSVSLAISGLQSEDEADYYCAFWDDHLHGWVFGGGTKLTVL , max. signal (% of 22G2) reported as 80 % of 22G2

Entry 43586p1.2.B8 (scFv, V domains shown) VH: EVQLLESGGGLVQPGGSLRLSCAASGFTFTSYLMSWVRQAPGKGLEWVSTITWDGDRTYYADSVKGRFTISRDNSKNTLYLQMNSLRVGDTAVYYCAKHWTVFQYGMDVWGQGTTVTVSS VL: QSVLTQPASASGTPGQRVTITCSGTISNIETKYVSWYQQLPGTAPKLLIYGNHQRPSGVPDRFSGSKSGTSASLAISGLQSEDEADYYCASWENDLKSWVFGGGTKLTVL , max. signal (% of 22G2) reported as 130 % of 22G2

Entry 43586p2.F02 (scFv, V domains shown) VH: EVQLLESGGGLVQPGGSLRLSCAASGFTFDDYVMSWVRQAPGKGLEWVSLINWNGDKTYYADSVKGRFTISRDNSKNTLYLQMNSLRAEDTAVYYCARHWIVLQYGLDVWGQGTTVTVSS VL: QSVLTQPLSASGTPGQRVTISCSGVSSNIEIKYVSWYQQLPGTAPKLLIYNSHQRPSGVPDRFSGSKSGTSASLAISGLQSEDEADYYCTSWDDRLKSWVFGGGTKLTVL , max. signal (% of 22G2) reported as 92 % of 22G2

Entry 43586p2.G01 (scFv, V domains shown) VH: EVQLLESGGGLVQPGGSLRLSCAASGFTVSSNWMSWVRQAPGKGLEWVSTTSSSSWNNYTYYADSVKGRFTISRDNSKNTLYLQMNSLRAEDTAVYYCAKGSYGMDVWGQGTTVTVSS VL: QSVLTQPPSASGTPGQRVTISCSGSNSNIGAKYLYWYQQLPGTAPKLLIYLNDRRPSGVPDRFSGSKSGTSASLAISGLQSEDEADYYCAFWDDHLKGWVFGGGTKLTVL , max. signal (% of 22G2) reported as 110 % of 22G2

Entry 43586p1.1.H8 (scFv, V domains shown) VH: EVQLLESGGGLVQPGGSLRLSCAASGFTFIDFWMSWVRQAPGKGLEWVSAISWIGDTYYYADSVKGRFTVSRDNSKNTVYLQMNSLRAEDTAVYYCAKHWTVYQYGMDVWGQGTTVTVSS VL: QSVLTQPPSASGTPGQRVIISCSGSTSDIETKYVSWYQQLPGTAPKLLIYGNHQRPSGVPDRFSGSKSGTSASLAISGLQSEDEADYYCTAWDNTLKSWVFGGGTKLTVL , max. signal (% of 22G2) reported as 124 % of 22G2

Entry 43586p2.A03 (scFv, V domains shown) VH: EVQLLESGGGLVQPGGSLRLSCAASGFTFTSYAMSWVRQAPGKGLEWVAGISYIGRNEYYADSVKGRLTISRDNSKNTLYLQMNNLRAEDTAIYYCAKHLTGGTTDYYYYGMDVWGQGTTVTVSS VL: QSVLTQPPSASGTPGQRVTISCSGSTSNIGTSRYVHWYQQLPGTAPKLLIYFDSQRPSGVPDRFSASKSGTSASLAISGLQSEDEADYYCATWDDSLSAWVFGGGTKLTVL , max. signal (% of 22G2) reported as 109 % of 22G2

Entry 43586p1.1.G9 (scFv, V domains shown) VH: EVQLLESGGGLVQPGGSLRLSCAASGFTFTTYAMSWVRQAPGKGLEWVAGISYIGSDKYYADSVKGRLTISRDNSKNTLYLQMDSLRAEDTAVYYCAKHLTGGTTDYYYYGMDVWGQGTTVTVS VL: QSVLTQPPSASGTPGQRVTISCSGSTSNIGTSRYVHWYQHLPGTAPKLLIYLDSQRPSGVPDRFSASKSGTSASLAISGLQSEDEADYYCSAWDDSLSAWVFGGGTKLTVL , max. signal (% of 22G2) reported as 113 % of 22G2

Entry 43352p1.D11 (scFv, V domains shown) VH: DVQLVESGGGVVRPGESLRLSCAASGFTFSSHAMSWVRQAPGEGLEWVSLISGNGVSAYYADSVKGRFTISRDNSKNTLYLQMNSLSAEDTAIYYCARGTYLISFFDYWGLGTLVTVSS VL: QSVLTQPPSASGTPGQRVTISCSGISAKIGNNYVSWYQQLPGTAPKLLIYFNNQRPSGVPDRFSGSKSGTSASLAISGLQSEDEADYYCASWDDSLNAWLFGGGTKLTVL , max. signal (% of 22G2) reported as 105 % of 22G2

Entry 43586p2.C09 (scFv, V domains shown) VH: EVQLLESGGGLVQPGGSLRLSCTASGFTFTSYAMSWVSQAPGKGLEWVAGISYDGSIKYYADSVKGRLTISRDNSKNTLYLQMNSLRAEDTAIYYCAKHLTGGTTDYYYYAMDVWGQGTTVTVSS VL: QSVLTQPPSASGTPGQRVTISCSGSTSNIGTNRYVHWYQQFPGTAPKLLIYGTDRRPSGVSDRFSGSKSGTSASLAISGLQSEDEADYYCAAWDDSLSAWVFGGGTKLTVL , max. signal (% of 22G2) reported as 115 % of 22G2

Entry 43645p1.B2 (scFv, V domains shown) VH: EVQLLESGGGLVQPGGSLRLSCATSGFTFSSYWMSWVRQAPGKGLEWVSGIHISDSTYYADSVKGRFTISRDNSKNTLYLQMNSLRAEDTAVYYCAKGHTVLQYGMDVWGQGTTVTVSS VL: QSGLTQPPSASGTPGQRVTISCSGDISNTRNNYVSWYQQLPGTAPKLLIYGNHQRPSGVPDRFSGSKSATSASLAISGLQSEDEADYHCGTWDNTLNAWVFGGGTKLTVL , max. signal (% of 22G2) reported as 111 % of 22G2

meta.source: patent US20230265187A1
